Reference source for all entries: paper PMC7432809

- Test system: Corynebacterium glutamicum (ATCC 13032)
- Experimental Details: microbe, parasite or virus in culture
- Assay type: cell-based
- Settings: ATCC 13032, 24 h
Where no end group is shown, it is not given here.

# Substance, Readout Units, Antimicrobial Activity (MIC) Cg
rows = [
    ("GKKWGWWKAK-NH2 [StAMP-6]", "µg/mL", 3.9),
    ("GKKPGGWKAK-NH2 [StAMP-1]", "µg/mL", 250),
    ("GKKWWGWKAK-NH2 [StAMP-5]", "µg/mL", 2.0),
    ("GRRPLLLRAR-NH2 [StAMP-11]", "µg/mL", 31.3),
    ("GKKPGWWKAK-NH2 [StAMP-4]", "µg/mL", 3.9),
    ("GKKWWWWKAK-NH2 [StAMP-8]", "µg/mL", 7.8),
    ("GKKPWWWKAK-NH2 [StAMP-7]", "µg/mL", 2.0),
    ("GRRPWWWRAR-NH2 [StAMP-9]", "µg/mL", 2.0),
    ("GKKPWGWKAK-NH2 [StAMP-3]", "µg/mL", 15.6),
    ("GKKWGGWKAK-NH2 [StAMP-2]", "µg/mL", 31.3),
    ("GRRWWWWRAR-NH2 [StAMP-10]", "µg/mL", 7.8),
]

* * *

- Tested on: Pseudomonas aeruginosa (ATCC 27853)
- Experimental Details: microbe, parasite or virus in culture
- Format: cell-based
- Settings: ATCC 27853, 24 h
- Protocol: Two strains of G- bacteria, P. aeruginosa (Pa, ATCC 27853) and E. coli (Ec, ATCC 25922), were also used. Cultures stored at -80 °C in glycerol were transferred to Müller–Hinton plates (MH, Difco Laboratories, Detroit, MI, USA) and incubated for 24 h at 35 °C. […] The microtiter plates were incubated for 24 h at 35 °C with optical density (595 nm) recorded every hour using an Envision 2103 multilabel reader, controlled by a Wallac Envision manager (PerkinElmer, Waltham, MA, USA). […]
Where no end group is shown, it is not given here.

# Substance, Value Qualifier, Antimicrobial Activity (MIC) Pa [µg/mL]
records = [
    ("GRRWWWWRAR-NH2 [StAMP-10]", "=", 31.3),
    ("GKKWGGWKAK-NH2 [StAMP-2]", ">", 250),
    ("GKKWWWWKAK-NH2 [StAMP-8]", "=", 125),
    ("GKKWWGWKAK-NH2 [StAMP-5]", "=", 250),
    ("GKKPWGWKAK-NH2 [StAMP-3]", ">", 250),
    ("GRRPWWWRAR-NH2 [StAMP-9]", "=", 31.3),
    ("GKKPGWWKAK-NH2 [StAMP-4]", ">", 250),
    ("GKKWGWWKAK-NH2 [StAMP-6]", ">", 250),
    ("GRRPLLLRAR-NH2 [StAMP-11]", ">", 250),
    ("GKKPGGWKAK-NH2 [StAMP-1]", ">", 250),
    ("GKKPWWWKAK-NH2 [StAMP-7]", "=", 250),
]

* * *

Recorded Antimicrobial Activity (MIC) Ml for the following substances
- System: Micrococcus luteus
- Experimental Details: microbe, parasite or virus in culture
- Format: cell-based
- Settings: 24 h
Where no end group is shown, it is not given here.

# Substance, Readout Units, Value Qualifier, Antimicrobial Activity (MIC) Ml
records = [
    ("GKKWWWWKAK-NH2 [StAMP-8]", "mg/L", "=", 15.6),
    ("GKKPWWWKAK-NH2 [StAMP-7]", "mg/L", "=", 31.3),
    ("GRRWWWWRAR-NH2 [StAMP-10]", "mg/L", "=", 15.6),
    ("GRRPLLLRAR-NH2 [StAMP-11]", "mg/L", "=", 62.5),
    ("GKKWWGWKAK-NH2 [StAMP-5]", "mg/L", "=", 15.6),
    ("GRRPWWWRAR-NH2 [StAMP-9]", "mg/L", "=", 3.9),
    ("GKKPGWWKAK-NH2 [StAMP-4]", "mg/L", "=", 125),
    ("GKKPWGWKAK-NH2 [StAMP-3]", "mg/L", "=", 250),
    ("GKKPGGWKAK-NH2 [StAMP-1]", "mg/L", ">", 250),
    ("GKKWGWWKAK-NH2 [StAMP-6]", "mg/L", "=", 62.5),
    ("GKKWGGWKAK-NH2 [StAMP-2]", "mg/L", "=", 250),
]
